Target: rat EP1 receptor (Rattus norvegicus)
Construct: expressed in transfected cells; host or cells: COS-1 cells, transient transfection with Lipofectamine 2000
Sequence (P70597 whole entry): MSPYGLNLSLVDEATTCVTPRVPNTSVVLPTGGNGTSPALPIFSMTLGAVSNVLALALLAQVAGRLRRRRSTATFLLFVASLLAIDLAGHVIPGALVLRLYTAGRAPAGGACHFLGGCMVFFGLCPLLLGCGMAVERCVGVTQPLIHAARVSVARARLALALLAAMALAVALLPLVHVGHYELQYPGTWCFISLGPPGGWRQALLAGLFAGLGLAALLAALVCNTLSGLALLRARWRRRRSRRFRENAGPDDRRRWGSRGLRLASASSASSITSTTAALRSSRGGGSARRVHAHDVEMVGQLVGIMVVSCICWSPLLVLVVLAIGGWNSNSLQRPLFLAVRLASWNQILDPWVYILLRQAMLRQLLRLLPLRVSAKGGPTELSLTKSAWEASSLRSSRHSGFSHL
Test: Test for confirmation of EP1 receptor antagonism: inhibition of prostaglandin E2-induced increase in intracellular calcium concentration (Method A or Method B)
Type: cell-based
Conditions: Method A (Fluo-4 NW, FlexStation); rat EP1 receptor-expressing cells; prostaglandin E2 10 nM
Outcome measure: IC50 (µM)
Output spec: scalar in µM, unitless text.

Reference set, count: 2
O=C(O)c1cccc(Cc2c(-c3ccccc3)[nH]c3cc(Cl)ccc23)n1	0.015
COc1ccc2c(Cc3cccc(C(=O)O)n3)c(-c3csc(C)c3)[nH]c2c1	0.026

Shift focus to the following entry.
Q: For the molecule `Cc1ccc2c(Cc3cccc(C(=O)O)n3)c(-c3ccccc3)[nH]c2c1` , what IC50 is on record?
Ans: 0.018
